Source listed as PubChem BioAssay (NCI).

# Test system: 786-0 renal
# Assay Comment: NCI-60 one-dose screen, 48 h
# Condition Summary: 10 µM unless noted
About 83,000 compounds went through this panel and 20% of them were active in at least one assay; those are over-represented in the sample as a whole. Calls of active or inactive are those of the source. Rule for the calls: active = growth percent below 10; inactive = the rest.
A correct response names exactly one class from T (active), F (inactive)

Called result for `O=C1/C(=C2/C=Nc3ccccc32)N(O)c2ccccc21`
F

Called result for CC1=CN2C(=O)C3C4=C(CCCC4)SC3N=C2CN1c1c(C)cccc1C (centres undefined)
F

Called result for `NC(=O)c1ccc[n+]([C@@H]2O[C@H](COP(=O)([O-])OP(=O)(O)OC[C@H]3O[C@@H](n4cnc5c(N)ncnc54)[C@H](O)[C@@H]3O)[C@@H](O)[C@H]2O)c1`
F

Called result for CN(c1ccccc1)c1ccc2c(c1)OCCC21CC1Nc1cnccc1C(=O)O (centres undefined)
F

Called result for `Cc1ccc(C(=O)CSc2nc(-c3ccc(Br)cc3)c(C#N)c(=O)[nH]2)cc1`
F

Called result for `Cc1cc(C)c2c(-c3nnc(N)s3)cc(=O)oc2c1`
F

Called result for `COc1ccc2nc(NNC(=O)c3cnccn3)c3cccn3c2c1`
T

Called result for N=C1C(c2nc(-c3ccc(Br)cc3)cs2)=C(O)CN1CC1CCCO1 (centres undefined)
F

Called result for `O=c1oc2ccccc2c(Cl)c1Cl`
F

Called result for `Cc1c(C)c2c(c(C)c1OCC(=O)O)CC[C@@](C)(CCC[C@@H](C)CCC[C@@H](C)CCCC(C)C)O2`
T

Called result for `Cc1cccc(Cc2cnc(NC(=O)/C=C/c3ccco3)s2)c1`
F

Called result for `CC(C)(C)c1ccc(/C=C/C(=O)Nc2ccc(O)cc2)cc1`
F

Called result for `c1c[nH]c(CNC2CCCCC2)c1`
F

Called result for `N=C(N)c1ccc(-c2ccc(-c3cncc4ccccc34)s2)s1`
T

Called result for `O=[N+]([O-])c1ccc(-c2cc(-c3ccc(Nc4nc(Nc5ccc(Cl)cc5)nc(Nc5ccc(Cl)cc5)n4)cc3)no2)cc1`
F

Called result for `FC(F)(F)c1cc(Nc2ccc3cc(OCCCN4CCOCC4)ccc3n2)ccc1Cl`
T

Called result for `Cc1cccc(NC(=O)CSc2nc3ccccc3[nH]2)c1`
F

Called result for `COC1=CC(=O)C[C@@H](C)[C@]12Oc1c(Cl)c(OC)cc(OC)c1C2=O`
F

Called result for `N/C(=N\c1nc2ccccc2s1)NC(=O)Nc1cccc(Cl)c1`
F

Called result for `COc1cccc(-c2nc3sccn3c2-c2ccnc(NCCNS(=O)(=O)c3cccc(F)c3)c2)c1`
F

Called result for `CCOC(=O)c1csc(NC(=O)COc2cccc(/C=C3\Oc4cc(OC)ccc4C3=O)c2)n1`
F

Called result for `O=C(CSc1nccc(Nc2ccc(S(=O)(=O)Nc3nccs3)cc2)n1)c1ccc(F)cc1`
F

Called result for `COc1ccc(C(=O)Nn2c(NCC(=O)N3c4ccccc4Sc4ccccc43)nnc2-c2ccc(O)cc2)cc1`
F

Called result for `CC/C=C/C/C=C/C/C=C/C/C=C/C/C=C/C/C=C/CCC(=O)Nc1ccn([C@@H]2O[C@H](CO)[C@@H](O)C2(F)F)c(=O)n1`
T

Called result for CC1(C)CC(=O)CC2(C1)N=C(N)Nc1nc3ccccc3n12 (centres undefined)
F

Called result for `Nc1n[nH]c(-c2cc(Cl)ccc2O)c1-c1ccccc1`
F

Called result for `O=C(CCCCCCSc1nc(-c2ccccc2)cc(-c2ccc(Cl)cc2)n1)NO`
T

Called result for O=C(NC(CSSCC(NC(=O)c1ccccc1)C(=O)O)C(=O)O)c1ccccc1 (centres undefined)
F

Called result for `COc1cc(N=Nc2ccc(N)cc2)c(OC)cc1N=Nc1ccccc1.[Cl][Zn][Cl]`
F

Called result for `COc1ccc(NC(=O)CSc2nc(C)c(C(C)=O)n2-c2ccc(Cl)cc2)cc1`
F

Called result for CCN1C(=O)N(CC)C2Nn3c(s/c(=C4\C(=O)N(C)c5ccccc54)c3=O)=NC21 (centres undefined)
F

Called result for `Cc1ccc2[nH]c(=O)c3c(c2c1)OC(N)=C(C#N)C31c2cc(Br)ccc2-c2ccc(Br)cc21`
F

Called result for `O=C(Nc1ccc(Nc2ccncc2)cc1)c1ccc(C(=O)Nc2ccc(Nc3ccncc3)cc2)cc1`
F

Called result for `CCCCCS(=O)(=O)Nc1ccc(C(=O)O)cc1`
F

Called result for CN(C)CC1C(=O)O[C@H]2[C@H]1CC/C(COC(=O)c1cc3ccccc3[nH]1)=C\CC[C@@]1(C)O[C@@H]21 (some centres undefined)
T

Called result for `COc1ccc(-c2c(N)n[nH]c2-c2ccc(Cl)cc2O)cc1OC`
F

Called result for `C=C(C)[C@@H]1CC[C@]2(C(=O)NC3CCCCC3)CC[C@]3(C)[C@H](CC[C@@H]4[C@@]5(C)CCC(=O)C(C)(C)[C@@H]5CC[C@]43C)[C@@H]12`
F

Called result for `O=C(CCc1nnc(CN(c2ccccc2)c2ccccc2)o1)c1nc2ccccc2[nH]1`
F

Called result for `CC/C=C\C[C@H](O)C/C=C1/C(=O)C=C[C@@H]1C/C=C\CCCC(=O)OC`
T

###

# System: CCRF-CEM leukemia
# Assay Comment: NCI-60 one-dose screen, 48 h (100 = growth as untreated, 0 = no growth, -100 = all killed)
# Condition Summary: 10 µM unless noted
Compounds without any hit were thinned out: in the full panel of roughly 83,000, 20% have a hit.
Quantity Kind: growth (%)
Answer format: numeric, % implied, no suffix.

# get_value(readout='growth', item= `O=C(Cc1ccc(F)c(F)c1)Nc1cc(C2(C(F)(F)F)CC2)nn1Cc1ccccc1` )
20.1

# get_value(readout='growth', item= `O=C(/C=C/c1c(Cl)nc2sccn12)c1nccs1` )
93.4

# get_value(readout='growth', item= O=C1Nc2ccc(F)cc2C12Nc1cc(Cl)ccc1S2 (stereo unspecified) )
76.4

# get_value(readout='growth', item= `Cc1ccc(/C=C2\C(=O)N(C)c3ccc(S(=O)(=O)Nc4ccc(C(C)(C)C)cc4)cc32)s1` )
65.6

# get_value(readout='growth', item= `Cc1cc(NCc2cc(Nc3ccnc4cc(Cl)ccc34)ccc2F)nc(N2CCOCC2)n1` )
1.04

# get_value(readout='growth', item= `N#Cc1c(N)nc2c(C#N)c(NC(=O)c3ccccc3)nn2c1-c1ccccc1` )
57.2

# get_value(readout='growth', item= `COc1ccc(N=Nc2ccc(O)c(=O)cc2)cc1` )
15.8

# get_value(readout='growth', item= `C=C1C(=O)O[C@H]2[C@H]1CC/C(CNC(=O)/C=C/c1ccc(Cl)cc1Cl)=C\CC[C@@]1(C)O[C@@H]21` )
-30.7

# get_value(readout='growth', item= COCN1CCC2N(COC)CCC3N(COC)CCC1N23 (stereo unspecified) )
104

# get_value(readout='growth', item= `Fc1ccc(CNc2c3ccccc3nc3ccccc23)cc1F` )
41.5

# get_value(readout='growth', item= `O=C(/C=C/c1ccc(Cl)nc1)c1ccc(Cl)cc1Cl` )
7

# get_value(readout='growth', item= `Cc1ccc(NCCN(C)C)c2c(=O)c3ccccc3sc12` )
27

# get_value(readout='growth', item= `S=C(Cc1ccc2c(c1)CCCC2)N1CCOCC1` )
119

# get_value(readout='growth', item= `COc1ccc(-c2ccc3c(c2)sc2nc(-c4ccc(F)cc4)cn23)cc1` )
98.8

# get_value(readout='growth', item= `Cn1c(=O)c2c(nc(Cl)n2CCl)n(C)c1=O` )
84.9

# get_value(readout='growth', item= `COc1cccc(-c2nn(-c3ccccc3)cc2-c2ccnc(NCCCNC(=O)c3ccc(F)cc3)c2)c1` )
38.6

# get_value(readout='growth', item= `COc1ccc(NC(=O)CSc2nnc(-c3cc(-c4ccccc4)nc4ccccc34)n2-c2ccccc2)cc1` )
86.9

# get_value(readout='growth', item= `CN(C)CCCn1c(=O)c2ccccc2c2ccccc21` )
49.9

# get_value(readout='growth', item= `O=C(N=c1oc2ccccc2cc1-c1cc2ccccc2[nH]1)c1ccc(Cl)cc1` )
24.7

# get_value(readout='growth', item= `COc1ccc(-c2cc(-c3cc(OC)ccc3OC)nc(SCC(=O)c3ccccc3)c2C#N)cc1` )
111

# get_value(readout='growth', item= `COc1cccc(-c2nn(-c3ccccc3)cc2-c2ccnc(NCCCNC(=O)c3cccc(C(F)(F)F)c3)c2)c1` )
21.5

###

# Tested on: SF-268 CNS
# Assay Comment: NCI-60 one-dose screen, 48 h (100 = growth as untreated, 0 = no growth, -100 = all killed)
# Condition Summary: 10 µM unless noted
# Procedure: Cells are grown in 96 well plates and exposed to the test compound for 48 hours. Compounds are tested at a single concentration, which is 10^-5 M for most compounds. The reported endpoint is percent growth (GI% or GIPRCNT), where numbers from 0 - 100% represent growth inhibition, and numbers from -100% - 0 represent cell death. For example, a value of 40 represents 60% growth inhibition. A value of 0 means no net growth occurred over the course of the experiment. […]
The panel holds about 83,000 compounds, 20% with a hit somewhere; the sample as a whole holds those more often.
Just so you know, the groups by growth go like this: bin 1: < 50%; bin 2: ≥ 50% and < 90%; bin 3: ≥ 90%

Exercise: read the entry `C=C(C)[C@@H]1CC[C@]2(C)[C@H](CC=C3[C@@H]4CC(C)(C)CC[C@]4(C(N)=O)CC[C@]32C)[C@@]1(C)CCC#N` and state which class it falls under.
bin 1

Exercise: read the entry `O=C1/C(=C\c2c[nH]c3ccccc23)c2ccccc2N1c1c(Cl)cccc1Cl` and state which class it falls under.
bin 1

Exercise: read the entry `CCN(CC)CCN1CC(O)=C(c2nc(-c3ccc(Cl)cc3)cs2)C1=N` and state which class it falls under.
bin 1

Exercise: read the entry `COC1=C(OC)C(=O)C(OC)=C(OC)C1=O` and state which class it falls under.
bin 3

Exercise: read the entry `Cc1cc(NCc2cc(Nc3ccnc4cc(Cl)ccc34)ccc2F)nc(N2CCN(C)CC2)n1` and state which class it falls under.
bin 1

Exercise: read the entry `COc1ccc(-c2nc(SCC(=O)Nc3nc(-c4ccccc4)cs3)[nH]c(=O)c2C#N)cc1` and state which class it falls under.
bin 3

Exercise: read the entry CC(=O)C(C)Cc1cc2c(cc1C)C(C)(C)CCC2(C)C (centres undefined) and state which class it falls under.
bin 3

Exercise: read the entry `O=C(Nc1cccc(Oc2nnc(Cl)c3ccccc23)c1)Nc1ccc(Cl)c(C(F)(F)F)c1` and state which class it falls under.
bin 1

Exercise: read the entry CCOc1ccccc1-n1c(CN2CCN(C(=O)COc3ccc(CNCCCCCCN4C5CCCC4CC(OC(=O)Nc4cc(C)ccc4OC)C5)cc3)CC2)nc2ccccc2c1=O (centres undefined) and state which class it falls under.
bin 1

Exercise: read the entry `O=c1c2cc(F)ccc2sc2c(NCCCN3CCCC3)nc3ccccc3c12` and state which class it falls under.
bin 1

Exercise: read the entry `O=c1c2c3c(sc2nc(N/N=C/c2ccc(Br)cc2)n1Cc1ccccc1)CCCC3` and state which class it falls under.
bin 2

Exercise: read the entry `NC(=S)Nc1cccc(O)c1` and state which class it falls under.
bin 3

Exercise: read the entry `NC(N)=NN=C(c1ccccc1)c1ccccc1` and state which class it falls under.
bin 1

Exercise: read the entry `COc1ccc(Nc2nnc(SCc3ccccc3F)s2)cc1` and state which class it falls under.
bin 3

Exercise: read the entry `COc1cc(/C=N/Nc2ncc(-c3cc4cc5c(cc4o3)OCO5)s2)cc(OC)c1OC` and state which class it falls under.
bin 2

Exercise: read the entry `COc1cccc(/C=C/C(=O)c2c(C)nc3ccccc3c2/C=C/c2ccc(C)cc2)c1OC` and state which class it falls under.
bin 2

Exercise: read the entry CN(c1ccccc1)c1ccc2c(c1)OCCC21CC1Nc1cnccc1C(=O)O (centres undefined) and state which class it falls under.
bin 2

Exercise: read the entry `COC(=O)[C@]12CC[C@@H](C)[C@H](C)[C@@H]1C1=CC[C@@H]3[C@@]4(C)C(C=O)=C[C@@](C)(COC(C)=O)[C@@H]4C(=O)C[C@@]3(C)[C@]1(C)CC2` and state which class it falls under.
bin 1

Exercise: read the entry COc1cc2c(cc1-c1c(C)noc1C)ncc1nc(C3CCCCC3)n(C3CCC(OC(F)F)CC3)c12 (centres undefined) and state which class it falls under.
bin 2

Exercise: read the entry `N/C(=N/N=C/c1ccccc1)N/N=C\c1ccccc1` and state which class it falls under.
bin 2

Exercise: read the entry `NC(=O)c1ccc[n+]([C@@H]2O[C@H](COP(=O)([O-])OP(=O)(O)OC[C@H]3O[C@@H](n4cnc5c(N)ncnc54)[C@H](O)[C@@H]3O)[C@@H](O)[C@H]2O)c1` and state which class it falls under.
bin 3

Exercise: read the entry `Nc1ccc2c(c1)c(N)nn2C(=O)Nc1ccc(Cc2ccccc2)cc1` and state which class it falls under.
bin 2

Exercise: read the entry `COc1cc(-c2nc(N3CCN(C)CC3)c3ccccc3n2)cc(OC)c1OC` and state which class it falls under.
bin 2

Exercise: read the entry `Cc1ccc(S(=O)(=O)Oc2cc(OS(=O)(=O)c3ccc(C)cc3)cc(OS(=O)(=O)c3ccc(C)cc3)c2)cc1` and state which class it falls under.
bin 3

Exercise: read the entry `COc1ccc(-c2c(N)n[nH]c2-c2ccc(Cl)cc2O)cc1OC` and state which class it falls under.
bin 3

Exercise: read the entry O=C(O)C1CCC(=O)N1C(=O)OCc1ccccc1 (centres undefined) and state which class it falls under.
bin 3

Exercise: read the entry `Cn1ccc2c(c1=O)C(=O)c1nccc3c1c-2nc1ccccc13` and state which class it falls under.
bin 1

Exercise: read the entry `CC/C=C\C[C@H](O)C/C=C1/C(=O)C=C[C@@H]1C/C=C\CCCCO` and state which class it falls under.
bin 2

Exercise: read the entry `CCN(CC)CCn1nc2c3c(cccc3c1=O)-c1ccccc1-2` and state which class it falls under.
bin 1

Exercise: read the entry `Cc1cc(NCc2cc(Nc3ccnc4cc(Cl)ccc34)ccc2F)nc(N2CCSCC2)n1` and state which class it falls under.
bin 1

Exercise: read the entry CC(=O)O[C@]1(C(C)=O)CCC2C3C[C@H](C)C4=CC(=O)CC[C@]4(C)C3CC[C@@]21C (some centres undefined) and state which class it falls under.
bin 3

Exercise: read the entry `FC(F)(F)c1cc(Nc2ccc3cc(OCCCN4CCOCC4)ccc3n2)ccc1Cl` and state which class it falls under.
bin 1

Exercise: read the entry `Fc1cnc(NC2CC2)nc1-c1cnc2ccc(N3CCOCC3)cn12` and state which class it falls under.
bin 1
